Tested on: Oseltamivir-resistant A/Weiss/43 (H1N1)
Assay: microbe, parasite or virus in culture
Assay type: cell-based, influenza virus H1N1
Settings: Influenza A virus, H1N1, MDCK, 120 h
pEC50: −log10 of the molar value.
measured.property: pEC50

Q: Please report the recorded pEC50 for `CCC(CC)O[C@@H]1C=C(C(=O)O)C[C@H](N)[C@H]1NC(C)=O` .
A: < 4.00
